System: 786-O
Assay: minimum viability across doses, drug + dasatinib, relative to DMSO (fraction); higher = less growth inhibition
Conditions: treatment: drug + dasatinib (fixed dose, not stated); 5 days
// classify: if (minimum viability across doses < 0.2) true (1) else false (0)

{"columns": ["compound", "label_class"],
 "data": [
  ["CC(C)(C)c1nc(-c2cccc(NS(=O)(=O)c3c(F)cccc3F)c2F)c(-c2ccnc(N)n2)s1 + Cc1nc(Nc2ncc(C(=O)Nc3c(C)cccc3Cl)s2)cc(N2CCN(CCO)CC2)n1", "true (1)"],
  ["O=C(NCc1ccccc1)c1csc(Nc2ccncn2)n1 [Thiazovivin] + Cc1nc(Nc2ncc(C(=O)Nc3c(C)cccc3Cl)s2)cc(N2CCN(CCO)CC2)n1", "false (0)"],
  ["O=C(O)c1ccc(Nc2ncc3c(n2)-c2ccc(Cl)cc2C(c2c(F)cccc2F)=NC3)cc1 [MLN8054] + Cc1nc(Nc2ncc(C(=O)Nc3c(C)cccc3Cl)s2)cc(N2CCN(CCO)CC2)n1", "true (1)"],
  ["Cc1[nH]c(/C=C2\\C(=O)Nc3ccc(S(=O)(=O)Cc4c(Cl)cccc4Cl)cc32)c(C)c1C(=O)N1CCC[C@@H]1CN1CCCC1 + Cc1nc(Nc2ncc(C(=O)Nc3c(C)cccc3Cl)s2)cc(N2CCN(CCO)CC2)n1", "true (1)"],
  ["CC(C)(C)c1cc(/C=C(\\C#N)C(N)=S)cc(C(C)(C)C)c1O [Tyrphostin AG 879 (AG 879)] + Cc1nc(Nc2ncc(C(=O)Nc3c(C)cccc3Cl)s2)cc(N2CCN(CCO)CC2)n1", "false (0)"],
  ["CCS(=O)(=O)Nc1ccc2c(c1)/C(=C(/Nc1ccc(CN3CCCCC3)cc1)c1ccccc1)C(=O)N2 [Hesperadin] + Cc1nc(Nc2ncc(C(=O)Nc3c(C)cccc3Cl)s2)cc(N2CCN(CCO)CC2)n1", "true (1)"],
  ["CC[C@H](Nc1ncnc2[nH]cnc12)c1nc2cccc(F)c2c(=O)n1-c1ccccc1 [CAL-101 (GS-1101)] + Cc1nc(Nc2ncc(C(=O)Nc3c(C)cccc3Cl)s2)cc(N2CCN(CCO)CC2)n1", "false (0)"],
  ["CC(=O)Nc1cccc(-n2c(=O)n(C3CC3)c(=O)c3c(Nc4ccc(I)cc4F)n(C)c(=O)c(C)c32)c1 + Cc1nc(Nc2ncc(C(=O)Nc3c(C)cccc3Cl)s2)cc(N2CCN(CCO)CC2)n1", "false (0)"],
  ["COc1cc2c(N3CCN(C(=O)Nc4ccc(OC(C)C)cc4)CC3)ncnc2cc1OCCCN1CCCCC1 [Tandutinib (MLN518)] + Cc1nc(Nc2ncc(C(=O)Nc3c(C)cccc3Cl)s2)cc(N2CCN(CCO)CC2)n1", "false (0)"],
  ["Nc1ncnc2c1c(-c1cccc(OCc3ccccc3)c1)cn2[C@H]1C[C@H](CN2CCCC2)C1 [NVP-ADW742] + Cc1nc(Nc2ncc(C(=O)Nc3c(C)cccc3Cl)s2)cc(N2CCN(CCO)CC2)n1", "true (1)"],
  ["OCCn1cc(-c2cnc3nnn(Cc4ccc5ncccc5c4)c3n2)cn1 + Cc1nc(Nc2ncc(C(=O)Nc3c(C)cccc3Cl)s2)cc(N2CCN(CCO)CC2)n1", "false (0)"],
  ["NCC(=O)Nc1ccc(-n2nc(C(F)(F)F)cc2-c2ccc3c(ccc4ccccc43)c2)cc1 + Cc1nc(Nc2ncc(C(=O)Nc3c(C)cccc3Cl)s2)cc(N2CCN(CCO)CC2)n1", "true (1)"],
  ["COc1cc2ncnc(Nc3cccc(Br)c3)c2cc1OC.Cl + Cc1nc(Nc2ncc(C(=O)Nc3c(C)cccc3Cl)s2)cc(N2CCN(CCO)CC2)n1", "true (1)"],
  ["COc1cc2ncnc(Nc3ccc(O)c(Br)c3)c2cc1OC [WHI-P154] + Cc1nc(Nc2ncc(C(=O)Nc3c(C)cccc3Cl)s2)cc(N2CCN(CCO)CC2)n1", "false (0)"],
  ["C=CC(=O)Nc1cccc(Oc2nc(Nc3ccc(N4CCN(C)CC4)cc3OC)ncc2Cl)c1 [WZ4002] + Cc1nc(Nc2ncc(C(=O)Nc3c(C)cccc3Cl)s2)cc(N2CCN(CCO)CC2)n1", "false (0)"],
  ["Cc1[nH]c(/C=C2\\C(=O)Nc3ccccc32)c(C)c1CCC(=O)O [TSU-68] + Cc1nc(Nc2ncc(C(=O)Nc3c(C)cccc3Cl)s2)cc(N2CCN(CCO)CC2)n1", "false (0)"],
  ["CC(C)(C)c1cnc(CSc2cnc(NC(=O)C3CCNCC3)s2)o1 + Cc1nc(Nc2ncc(C(=O)Nc3c(C)cccc3Cl)s2)cc(N2CCN(CCO)CC2)n1", "true (1)"],
  ["C=CCc1cccc(/C=N/NC(=O)CN2CCN(Cc3ccccc3)CC2)c1O [PAC-1] + Cc1nc(Nc2ncc(C(=O)Nc3c(C)cccc3Cl)s2)cc(N2CCN(CCO)CC2)n1", "true (1)"]
]}
